target: T1, human Sdc2 (human, UniProt P34741 19-144, limits assumed); assay: Octet tandem binning; saturating Ab m2 19838-8G17-A
T1 construct: Antigen of the Octet tandem binning, loaded on biosensors at 100 nM; also called huSdc2; hSdc2
T1 sequence (P34741 19-144 limits assumed): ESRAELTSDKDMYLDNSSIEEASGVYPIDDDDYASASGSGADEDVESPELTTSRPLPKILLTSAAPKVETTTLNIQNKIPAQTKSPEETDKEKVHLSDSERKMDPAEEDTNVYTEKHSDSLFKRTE
METRIC: raw competing-Ab binding signal
Number only, no unit.

Please review the entries below; each comes with its answer.
{"BINDER": "R4M-P3-E06 (antibody, human IgG1, kappa, V domains shown, human IgG1 kappa from the phage campaign) VH: EVQLVESGGGVVQPGGSLRLSCAASGFTFSNYGMHWVRQAPGKGLEWVATISYDGTKKYYPDSVRGRFTISRDNSENMLYLQMDSLRLEDTAVIYCAKDLVSGSRYGFAFDSWGPGTLVTVSS VL: DIVMTQSPLSLPVTLGQPASISCRSSQSLVHSDGNTYLNWFQQRPGQSPRRLIYKVSNRDSGVPDRFSGTGSGTDFTLKISRVEADDVGVYYCMQGTHWPPIFGQGTRLEIKR", "OBS_VALUE": 0.183}
{"BINDER": "R3-P3-C11 (antibody, human IgG1, kappa, V domains shown, human IgG1 kappa from the phage campaign) VH: EVQLVESGGGLVQPGRSLRLACEASGFTFNNYAVHWVRQAPGKGLEWVAVISYDGTNKYYSDSMKGRFTISRDNSKNTLYLQINSLRVEDTAVYFCARGNYVRRDSFDIWGQGTMVTVSS VL: DIQMTQSPPSLSASVGDRVTITCRASQSISSYLNWYQQKPGKAPKLLIYGASSLQSGVPLRFSGSGSGADFTLTISSLQPEDFATYYCQQSYISPITFGQGTRLEIKR", "OBS_VALUE": 0.629}
{"BINDER": "6-N03-A (antibody, mouse IgG1, kappa, V domains shown) VH: EVQLVESGGGLVKPGGSLKLSCEASGITFSNYVMSWVRQTPEKRLEWVATISDGGSYTYYPDNVKGRFTISRDNAKNNLYLQMSHLKSEDTAMYYCVRDRYDYDGRVYAMDYWGQGTSVTVSS VL: DVVMTQTPLSLPVSLGDQASISCRSSQSLVHSNGDTYLHWYLQKPGQSPKLLIYKVSNRFSGVPDRFSGSGSGTDFTLKITRVEAEDLGVYFCSQSTHVPWTFGGGTKLEIKR", "OBS_VALUE": -0.0492}

For the next question, use this binder.
Input line: Which measured raw competing-Ab binding signal value corresponds to R3-P3-E09 (antibody, human IgG1, kappa, V domains shown, human IgG1 kappa from the phage campaign) VH: EVQLVETGGGVVQPGRSLTLSCGASEFTFSNYAMHWVRQAPGKGLEWVAVISYDGTKKYYGDSVKGRFTISRENIKNTLYLQMNSLRSEDTAVYYCARDVGKGVTATGTFDIWGQGTMVTVSS VL: AIRMTQSPSSLSASVGDRVTITCRASQGIGSYLAWFQQKPGEAPKSLIIDATRLKSGVPSRFSGSGSGTEFALTISSLRPEDFATYYCQQYNVSPLTFGGGTKVEIKR ?
Output line: 0.397
